Data origin, for the record: paper PMC4267758

# EXPERIMENTAL TARGET: Pyk2-FAT
# EXPERIMENT: Sedimentation equilibrium AUC
# Format: binding, human
# PARTICULARS: read-out: KABB (second site), 1:2 stoichiometry; AUC-SE, two site hetero-association model (A+B+B↔ABB), 1:2 Pyk2-FAT to peptide; 20 mM MES, pH 6.2; 4 °C; Monte Carlo error, 500 iterations, confidence level 0.68
ASSAY ENDPOINT: Kd (µM)
Give just the number in µM; leave the unit off.

SUBSTANCE	RECORDED MEASUREMENT
LD2: paxillin derived peptide LD2 (chicken paxillin; residues 139–163), chemically synthesized (GSNLSELDRLLLELNAVQHNPPSGF)	5.3

Moving on to another substance below.
-- ask Report measured Kd; entry is LD4: paxillin derived peptide LD4 (chicken paxillin; residues 262–278), chemically synthesized (SATRELDELMASLSDFK)
-- reply 5.18
